Test system: MS2 coat protein
Measurement Protocol: apparent KD of MS2 coat protein; designed switch direction (-1 OFF switch, 1 ON switch): -1; higher = weaker reporter binding
Assay Conditions: input ligand: microRNA oligo, concentration not stated
# binarize apparent KD of MS2 coat protein: threshold 30 nM inclusive, high side yes (1), low side no (0)

| Entry Sequence | Group |
| --- | --- |
| CACCGGUGAGACAACAUGAGGAUCACCCAUGUGAACAGCUCACAGGAUAUCCAGGCACGAAAGAAGGAGAAGGGUGGCUGACUC [Veuson] (Eterna round: R96, puzzle: Exclusion NG 3) | no (0) |
| AGAGUGGAGACAGGAUAUGAGAAUAGAUAGAAAUCAGAAGGGUCACAUGAGGAUCACCCAUGUAAAGUCUUGAGGAUGAGUGAU [Prohibition 1 - Jieux - Exclusion NG1] (Eterna round: R96, puzzle: Exclusion NG 1) | yes (1) |
| CAGUACUGAGGAUAUACAUGAGGAUCACCCAUGUGUUCCUGCUAGGAAACUAGCAAAAGUAGAAGGCAGUACUG [salish99_ex3_r3_098x] (Eterna round: R96, puzzle: Exclusion 3) | no (0) |
| UUAAAUCAUGUAGGAUAUGCGUGGCGAAGCUAUGCAGAAGGACAUGAGGAUCACCCAUGUUCUUCGGUCUGCGUACAGAUCGAA [JL ENG1 1.07] (Eterna round: R96, puzzle: Exclusion NG 1) | no (0) |

Now for another entry.
Identify whether the reported apparent KD of MS2 coat protein of the following sequence is 30 nM or greater: GGUGUCUUCAGAAGACAUGAGGAUCACCCAUGUAAAUGCACUGAGGAUAUACGGGCGACCGGCGUGUAGAAGGUAGAGCACGAA [Bivezale] (Eterna round: R96, puzzle: Exclusion NG 3)
no (0)

###

Test system: K4 kissing-loop RNA reporter;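 note: bound reporter read as fluorescence of individual clusters on recovered sequencing chips by microscopy, with normalized cluster intensities fitted with a binding model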
Measurement Protocol: apparent KD of K4 kissing-loop reporter; higher = weaker reporter binding
Assay Conditions: Eterna round: R107; input ligand: theophylline 20 uM
# binarize apparent KD of K4 kissing-loop reporter: threshold 200 nM inclusive, high side true (1), low side false (0)

Some entries whose results are on file:
| Entry Sequence | Assay System | Group |
| --- | --- | --- |
| CAACCCUGCUUUUUCGAGUUUUAGGGAUGACGAGGACCGGUACGGCCGCCACUCGACUACACUGUUCAGUGAUGUUGAACGGCGG [Teveza] | K4 kissing-loop RNA reporter | false (0) |
| AUGGUAUUGCGAGGAUAUCCUUCAAAUGUGACACUAACGGCAGUGAUGUUGCCGGCGUCUUUUUGAGGAGAAGGCGCGGUGUUAU [Exclusion FMN B GF 24] | K4 kissing-loop RNA reporter | false (0) |
| CGCAGUGAUGUUGCUUAUAUUCUUGGUUAACGAGGACCGGUACGGCCGCCACUCGAUUUCUAACUAUUCCAGUGUUAAUUUGAGU [JR_ExcTryptoA_Sub006] | K4 kissing-loop RNA reporter | true (1) |

Identify whether the reported apparent KD of K4 kissing-loop reporter of the following sequence is 200 nM or greater: AAGUGAUGUUGUAGUGAUGUUGUGAUGUUGCAGGAUAUAUAGUGAUGUAGAAGGGUAUGUGCAGUUUUCUUUUUUGAGUGUUGAU [aavamullin]
false (0)

Param item: UGAUAGGACAGAAGGAGCGGGCUAGUCAAAGACUAGCAAACGUUAAUAACAGGAGUGAUGUUCCAGGUAGGUCGCUGUCCUAUCU [ArgBX 25 #SwitchBubble #StaticStem]
false (0)

Param item: ACUGGGUUGACGAAAGUCAACAAAUGAGAAGGAGCGCACGAAAGUGCAGGUAGGUCGCUCAUUCCAGUGAUGUUGGAUCACCAGA [#SwitchBubble 19 #K4Late]
true (1)

Param item: UGGGAUUUGUCAGGAUAUGAGUGCAGUGAUGUUGCACUUAAUAAAGUACAUAGGCCCUGCUGGCACUCAGAAGGGACGGUGAUGC [Lalasobeer]
false (0)

Param item: AGACUACCACACUGUCAAUAGACAGUGGACUAGGAUAUGCUGAUAAGCAGAAGGAGUGAUGUUCCUUGGUAGUCAAUAAAAUAAU [FmnAX 13 G28+U67]
true (1)

###

Tested on: MS2 coat protein
Measurement Protocol: apparent KD of MS2 coat protein; designed switch direction (-1 OFF switch, 1 ON switch): -1; higher = weaker reporter binding
Assay Conditions: Eterna round: R95; input ligand: FMN 200 uM
Each item that follows carries a reported apparent KD of MS2 coat protein.
Write the value in nM as a bare number.

Worked examples, 4 sequences total:
| Entry Sequence | Assay System | Observed |
| --- | --- | --- |
| CGUCCUGUAGUGAGGAUAUUGUCUCGGAUACGAAACAAGAAGGCACAUGAGGAUCACCCAUGUAAUCAGGACGA [Malc #30 mod 12] (puzzle: Brourd's mod of Exclusion 4) | MS2 coat protein | 14.1 |
| CUGGUCCGAGGAUAUAUGAUGUGAAACAUGAGGAUCACCCAUGUAAUAUUAUGGAUGAAAAUAGAAGGCGGACUAG [Mat - Exclusion 5 - JL mod - D37] (puzzle: Exclusion 5) | MS2 coat protein | 52.6 |
| GAUUAUGCGAGCUUUAGGGACAUGAGGAUCACCCAUGUUCGUCUUAUUAAUCUAGGUACGCUGACAUACCUAAAUCU [JMF 98] (puzzle: Sensor v3, turn-off variant 1) | MS2 coat protein | 21.6 |
| CUGGUCCGAGGAUAUAUUAUGUGAAACAUGAGGAUCACCCAUGUUAUAUGAUGGAUGUAAAUAGAAGGCGGACUAG [JL-ex5-3.14] (puzzle: Exclusion 5) | MS2 coat protein | 27.6 |

Sample AGAUGGCGAGGAUAUACAUGAGGAUCACCCAUGUGAGAAGAAGAAGUGAGGAAGAAAAGUAGAAGGCGCUGUCA [Mat - Exclusion 3 - Mod of Salish D20] (puzzle: Exclusion 3) — what was its apparent KD of MS2 coat protein?
145

###

Each item that follows carries a reported apparent KD of MS2 coat protein.
Tested on: MS2 coat protein
Measurement Protocol: apparent KD of MS2 coat protein; designed switch direction (-1 OFF switch, 1 ON switch): -1; higher = weaker reporter binding
Assay Conditions: input ligand: FMN 200 uM
Write the value in nM as a bare number.

Worked examples, 3 sequences total:
| Entry Sequence | Observed |
| --- | --- |
| CAUGCACAUGAGGAUCACCCAUGUGAGGAUAUUUAGCGUCAGUAAUCAAUAGACAGCAGAAGAAGGCACCUGGU [Eternabot (L2) Solution 73] (Eterna round: R97, puzzle: Exclusion 1) | 35 |
| CUUAAUUGUGACAUGGGUGACAUGAGGAUCACCCAUGUCACAAGCUUUUUGUUCGUCUUAUAAUUAACCCAUGUCAC [Stov1/13-B3] (Eterna round: R97, puzzle: Sensor, turn-off variant 1) | 44.9 |
| GUAAAUCAUGUAGGAUAUGCAUAGCAAAGCUAUGCAGAAGGACAUGAGGAUCACCCAUGUCAUUCCGUCUGGAGACAGACGGGA [Mat - Exclusion NG 1 - Mod of JL - D58] (Eterna round: R96, puzzle: Exclusion NG 1) | 270 |

Sample GGUGGGCUAGGAUAUGCUUUGGGUGGGCAUUCCUUCGAUAAACUUGAGGAUCACCCAAGUAGAAGGAGCUUGCC [salish99_ex2_r4_023] (Eterna round: R97, puzzle: Exclusion 2) — what was its apparent KD of MS2 coat protein?
21.8

###

Each item that follows carries a reported apparent KD of MS2 coat protein.
Test system: MS2 coat protein
Measurement Protocol: apparent KD of MS2 coat protein; designed switch direction (-1 OFF switch, 1 ON switch): -1; higher = weaker reporter binding
Assay Conditions: input ligand: FMN 200 uM
Write the value in nM as a bare number.

| Entry Sequence | Assay System | Property Label | Readout Unit | Observed |
| --- | --- | --- | --- | --- |
| CAGCUGUCAGGAUAUCGUGCAUACAACGAAAGUUCUAUGUGCGAGAAGGGACAUGAGGAUCACCCAUGUAAACG [Omei Ex4 A26] (Eterna round: R97, puzzle: Exclusion 4) | MS2 coat protein | apparent KD of MS2 coat protein | nM | 101 |
| UACAAGCUUUUAAGAUCCUACAUGAGGAUCACCCAUGUGCUCGUCUUGUAACGUACUGUGACGAAAGUCACGGUACG [JL TOV1 3.22] (Eterna round: R97, puzzle: Sensor, turn-off variant 1) | MS2 coat protein | apparent KD of MS2 coat protein | nM | 206 |

Sample ACGAUGACAGAAAGAAGUCAAAAGACAUGAGGAUCACCCAUGUAGGAUAUGGCUACGAAAAGUAGUCAGAAGGACUUGUCAUCA [Omei Exc(NG) 3 Av2] (Eterna round: R96, puzzle: Exclusion NG 3) — what was its apparent KD of MS2 coat protein?
13.1

Param item: CGCUGUUGAGGAUAUGGGCGUGGGUACAUGAGGAUCACCCAUGUGUUGUCGCGCGUGGGUCUAGAAGGCGGCGGUG [-29.1, -27.2 kcal, 16% A] (Eterna round: R97, puzzle: Exclusion 5)
12.1

Param item: GCAGCAACUCUAAUCAACUAAACAUGAGGAUCACCCAUGUCUCAGGAUAUGGUCUGGAUUACAGGCCAGAAGGGAGAAAGCUGC [Eli exng3 - 043] (Eterna round: R96, puzzle: Exclusion NG 3)
16.2
